target: UniProtKB P34972; experiment: [35S]GTPγS binding assay, CB2 receptor agonistic activity; type: biochemical; details: EC50 value ratio of an (S)-enantiomer to the corresponding (R)-enantiomer
Sequence (P34972 whole entry): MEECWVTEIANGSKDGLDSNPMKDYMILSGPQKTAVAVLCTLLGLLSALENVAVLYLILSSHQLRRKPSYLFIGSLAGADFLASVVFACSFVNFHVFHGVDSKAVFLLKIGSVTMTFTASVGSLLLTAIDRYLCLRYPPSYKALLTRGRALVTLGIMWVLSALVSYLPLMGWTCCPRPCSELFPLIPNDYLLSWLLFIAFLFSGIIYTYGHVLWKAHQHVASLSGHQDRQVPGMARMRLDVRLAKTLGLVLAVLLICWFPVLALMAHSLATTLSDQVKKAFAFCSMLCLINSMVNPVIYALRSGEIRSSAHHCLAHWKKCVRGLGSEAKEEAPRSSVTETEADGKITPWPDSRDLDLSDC
Can you tell me Human CB2 receptor S/R ratio for the items I'm about to list?
Output: the number by itself.

Quick check: Human CB2 receptor S/R ratio on UniProtKB P34972, item NC(=O)[C@H](Cc1ccccc1)NC(=O)c1nn(CC2CCCCC2)c2ccccc12 ? 0.017

Could you share what Human CB2 receptor S/R ratio was measured for CCOC(=O)[C@H](NC(=O)c1nn(Cc2ccc(F)cc2)c2ccccc12)C(C)C [(R)EMB-FUBINACA] , tested on UniProtKB P34972? 2.5

Lab request: please report Human CB2 receptor S/R ratio under test system UniProtKB P34972 for CCOC(=O)[C@@H](NC(=O)c1nn(Cc2ccc(F)cc2)c2ccccc12)C(C)C [(S)EMB-FUBINACA] 2.5

Under UniProtKB P34972: Human CB2 receptor S/R ratio value of CC(C)[C@@H](NC(=O)c1nn(Cc2ccccc2F)c2ccccc12)C(N)=O [(R)AB-FUBINACA 2-fluorobenzyl isomer] ? 3.9

Human CB2 receptor S/R ratio of NC(=O)[C@@H](Cc1ccccc1)NC(=O)c1nn(CC2CCCCC2)c2ccccc12 on UniProtKB P34972? 0.017

GET /values?readout=Human CB2 receptor S/R ratio&system=UniProtKB P34972&item= CC(C)[C@H](NC(=O)c1nn(Cc2ccccc2F)c2ccccc12)C(N)=O [(S)AB-FUBINACA 2-fluorobenzyl isomer] 3.9

Query for UniProtKB P34972: what Human CB2 receptor S/R ratio does the record show for COC(=O)[C@@H](NC(=O)c1cn(Cc2ccc(F)cc2)c2ccccc12)C(C)(C)C [(S)MDMB-FUBICA] ? 0.35

Item CCOC(=O)[C@H](NC(=O)c1nn(CCCCCF)c2ccccc12)C(C)C [(R)5F-EMB-PINACA] with UniProtKB P34972 - Human CB2 receptor S/R ratio? 4.1

Recall the recorded Human CB2 receptor S/R ratio for COC(=O)[C@H](NC(=O)c1cn(Cc2ccc(F)cc2)c2ccccc12)C(C)(C)C [(R)MDMB-FUBICA] with UniProtKB P34972 and state it. 0.35

Fill in the recorded Human CB2 receptor S/R ratio for this compound, with UniProtKB P34972 as test system: CCOC(=O)[C@@H](NC(=O)c1nn(CCCCCF)c2ccccc12)C(C)C [(S)5F-EMB-PINACA] 4.1
